Can you tell me pKd for the items I'm about to list?
# assayTarget: T1, EsCas13d, nuclease-dead (Eubacterium siraeum, UniProt B0MS50, R295A;H300A;R849A;H854A)
# T1 sequence: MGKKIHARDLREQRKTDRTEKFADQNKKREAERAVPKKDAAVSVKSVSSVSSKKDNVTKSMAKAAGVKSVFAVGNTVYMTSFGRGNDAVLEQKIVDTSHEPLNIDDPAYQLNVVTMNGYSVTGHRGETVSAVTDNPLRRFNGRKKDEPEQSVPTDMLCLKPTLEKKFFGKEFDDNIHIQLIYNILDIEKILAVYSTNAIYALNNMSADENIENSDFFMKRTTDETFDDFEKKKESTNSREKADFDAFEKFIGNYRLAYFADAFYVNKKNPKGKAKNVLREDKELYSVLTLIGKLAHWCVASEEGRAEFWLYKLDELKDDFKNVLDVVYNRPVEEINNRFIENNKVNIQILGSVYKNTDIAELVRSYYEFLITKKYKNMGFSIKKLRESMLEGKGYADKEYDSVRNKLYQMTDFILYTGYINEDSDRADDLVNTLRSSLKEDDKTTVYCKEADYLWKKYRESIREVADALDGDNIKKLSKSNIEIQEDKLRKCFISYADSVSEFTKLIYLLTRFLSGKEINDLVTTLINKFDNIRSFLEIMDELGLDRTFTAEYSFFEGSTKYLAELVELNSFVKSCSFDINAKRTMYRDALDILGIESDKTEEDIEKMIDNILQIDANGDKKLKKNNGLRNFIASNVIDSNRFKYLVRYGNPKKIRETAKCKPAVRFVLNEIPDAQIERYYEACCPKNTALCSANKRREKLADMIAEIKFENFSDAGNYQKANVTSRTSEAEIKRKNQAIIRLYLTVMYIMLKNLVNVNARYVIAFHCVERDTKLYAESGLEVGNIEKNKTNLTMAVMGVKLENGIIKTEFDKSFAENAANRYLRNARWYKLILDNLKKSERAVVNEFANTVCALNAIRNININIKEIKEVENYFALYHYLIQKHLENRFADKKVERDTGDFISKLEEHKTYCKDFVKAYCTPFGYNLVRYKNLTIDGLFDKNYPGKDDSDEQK
# protocol: crRNA (strand 1, pre-loaded); Mg2+; 40 mM Tris-HCl pH 7.5, 150 mM NaCl, 6 mM MgCl2, 1 mM DTT, 0.1% Tween-20, 0.2 mg/ml BSA; 25 C; 10 min per concentration, then washed
# conditions: tags: His6-TwinStrep-SUMO cleaved; N-terminal SNAP kept (SNAP-Surface 488); label: 3' end held by stalled T7 RNA polymerase
# pKd = -log10(concentration in molar units)

Respond only with pKd recorded for target 2 MT 5'PFS UAA 3'PFS UCG (mixed) RNA 1: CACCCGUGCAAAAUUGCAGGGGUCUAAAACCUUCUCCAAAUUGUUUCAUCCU RNA 2: GGGAAUGGAUCCACAUCUACGAAUUCUAAAGGAUGAAACAAUUUGGAGAAGUCGAGAUCGGAAGAGCACACGU
8.21

Respond only with pKd recorded for target 1 MT 5'PFS GGA 3'PFS UGC (mixed) RNA 1: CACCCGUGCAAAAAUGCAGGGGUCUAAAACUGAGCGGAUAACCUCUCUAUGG RNA 2: GGGAAUGGAUCCACAUCUACGAAUUCGGACCAUAGAGAGGUUAUCCGCUCAUGCAGAUCGGAAGAGCACACGU
8.08

Respond only with pKd recorded for target 1 G12U,C21A (mixed) RNA 1: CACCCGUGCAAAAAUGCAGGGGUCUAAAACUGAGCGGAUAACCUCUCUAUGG RNA 2: GGGAAUGGAUCCACAUCUACGAAUUCGUACAAUAGAGAGUUUAUCCGCUCACCGAGAUCGGAAGAGCACACGU
7.56

Respond only with pKd recorded for target 2 MT 5'PFS CGC 3'PFS AGG (mixed) RNA 1: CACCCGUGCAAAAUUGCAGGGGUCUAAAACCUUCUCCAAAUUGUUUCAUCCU RNA 2: GGGAAUGGAUCCACAUCUACGAAUUCCGCAGGAUGAAACAAUUUGGAGAAGAGGAGAUCGGAAGAGCACACGU
8.47

// provenance: paper PMC10786891
